These measurements were taken from the supplement of paper PMC11865577.

System: G-clamp-N3 (biotin conjugate)
measurement description: pull-down binding Z-score (relative to library population); higher = stronger binding
test context: RNA library: Library-1 (pre-miRNA loops + repeats)
Label scheme for pull-down binding Z-score: lower than -0.2 is criterion not met, -0.2 and above is criterion met.

# count of solved cases: 4
AUAUAGAUAUCAGCUACCUAUAU [hsa-mir-3144] :: criterion not met
UAAUAGCAAUCCUUAAAUGCCAUUA [hsa-mir-4477b] :: criterion not met
UAGAUGAAUAAAUGAAUGACUCAUCA [hsa-mir-545] :: criterion not met
CUUCCCAUUUAAAAGUAAUGGCACA [hsa-mir-603] :: criterion not met

Please tell me: is the sequence UGCCAUUACUCUCAGUGGCA [hsa-mir-548y] at or over -0.2 in terms of pull-down binding Z-score? criterion met

Please tell me: is the sequence UCUUCUUUUGGAAGGAAGA [hsa-mir-3122] at or over -0.2 in terms of pull-down binding Z-score? criterion met

###

pull-down binding Z-score listing for selected sequences.
Test system: TO-3-N3-2 (biotin conjugate)
measurement description: pull-down binding Z-score (relative to library population); higher = stronger binding
test context: RNA library: Library-2
Enter a number only.

Sample records with pull-down binding Z-score:
UAAUAACGCUACUAAUGUUGUUAUUA :: -0.411
GAUCCAGCCCAGGCUGGUUCCGCUGAC [hsa-mir-4522] :: 0.351
AUGAGAAAUUGGUUUCAA [hsa-mir-8063] :: -0.245
CUGGGGUUGGAAUGUGACCCCA [hsa-mir-4654] :: -0.171

Need pull-down binding Z-score, item GCUGUUGGUCGGGUUGUGACAUUGCCCGCUGUGGAGAUAACUGC [hsa-let-7i] 0.672

Need pull-down binding Z-score, item UGUGACUGGACA [SHAPE_invivo_SARS-CoV-2_Motif_313] -0.233

Need pull-down binding Z-score, item UAUGUGAUUCUACUGCUCACUCAUAUA [hsa-mir-135a-1] -0.191

Need pull-down binding Z-score, item AAUUGGCUUUUACAAAAGACCAACU [hsa-mir-4798] -0.259

Need pull-down binding Z-score, item `UGCUGAGGCUUCUAAGAAGCCUCGGCA` -0.197

###

System: TO-N3-2 (biotin conjugate)
measurement description: pull-down binding Z-score (relative to library population); higher = stronger binding
test context: RNA library: Library-2
Label scheme for pull-down binding Z-score: lower than 0.3 is no, 0.3 and above is yes.

GCCAUCUGGUUGUGACAUCACUGAUGGC [hsa-mir-7155] :: no
UGCUGUUGUUAAAAUUUAUUGUCCAGCA [SHAPE_invitro_SARS-CoV-2_Motif_28] :: no

Please tell me: is the sequence GCCUUGUUGCAUAUGGAUCAAGC [hsa-mir-103a-1] at or over 0.3 in terms of pull-down binding Z-score? yes

Please tell me: is the sequence UAGUAGCUGGUGGUAUUGUAGCUAUCGUAGUAACAUGCCUUGCCUACUA [DMSMaPseq_invitro_SARS-CoV-2_Motif_172] at or over 0.3 in terms of pull-down binding Z-score? no

Please tell me: is the sequence GAGAGAGUGCACAGCCAGCUCAGGGAUUAAAGCUCUUUCUCUCUCUCUC [hsa-mir-7110] at or over 0.3 in terms of pull-down binding Z-score? yes

Please tell me: is the sequence CAGCAGCAGCAGCAGCAGCAGCAGCAGCAGCAGCAGCAGCAGCAGCAG [r(CAG)16] at or over 0.3 in terms of pull-down binding Z-score? yes

Please tell me: is the sequence CUUUUGUUCAAAUAAAAAUGCAAAAG [hsa-mir-651] at or over 0.3 in terms of pull-down binding Z-score? no

Please tell me: is the sequence UCUUUAAGGAAGGAAGUUCUGUUGAAUUAAAACACUUCUUCUUUGCUCAGGA [DMSMaPseq_invitro_SARS-CoV-2_Motif_265] at or over 0.3 in terms of pull-down binding Z-score? no

Please tell me: is the sequence AUUCUGGACACCAG [hsa-mir-147b] at or over 0.3 in terms of pull-down binding Z-score? yes
